experiment: Pharmacokinetic study in rats after oral administration of M. chamomilla extract (HPLC-UV of plasma); assay type: in vivo, Male Sprague-Dawley rats; details: male, Sprague-Dawley, rat, po, oral M. chamomilla extract (quercetin 8.51 mg/kg, luteolin 56.49 mg/kg, apigenin 13.82 mg/kg), mean ± SD, n = 6, read-out: T1/2, elimination half-life (converted)
Endpoint: half-life

Answered cases to consult:
# Substance smiles, half-life
measured = [
    ("O=c1c(O)c(-c2ccc(O)c(O)c2)oc2cc(O)cc(O)c12", "~13.6 h"),
    ("O=c1cc(-c2ccc(O)cc2)oc2cc(O)cc(O)c12", "~8.82 h"),
]

Consider the additional compound presented here.
Record request: half-life value, item O=c1cc(-c2ccc(O)c(O)c2)oc2cc(O)cc(O)c12
~4.43 h
